This collection of values is drawn from patent US20070128217A1.

Control serum LUMC looped peptides overview
# Tested on: control sera (pooled serum of ten healthy LUMC hospital workers; commercial negative donor pooled serum from the Dutch bloodbank)
# Assay type: binding, human
Note: the reply should be a number with no unit written.

Take a look at these entries with their results.
DEAQPLPQRQKKQPT
0.3
MSRIGMEVTPSGTWL
0.7
YHGAIKLDDKDPQFK
0.3
QKKQPTVTLLPAADM
0.7
IGMEVTPSGTWLTYH
0.8
TYHGAIKLDDKDPQF
0.4
MEVTPSGTWLTYHGA
0.8
GAIKLDDKDPQFKDN
0.5
GMSRIGMEVTPSGTW
0.5
DNVILLNKHIDAYKT
0.7

Sure, the documented Control serum LUMC looped peptides for `HIDAYKTFPPTEPKK` is 0.3

Kindly note the recorded Control serum LUMC looped peptides for `LPQRQKKQPTVTLLP` , which is 0.7

Form field Control serum LUMC looped peptides, entry `TFPPTEPKKDKKKKT` : 0.4

In plain terms, `HWPQIAQFAPSASAF` has a documented Control serum LUMC looped peptides of 0.8

----------
Known Binding of serum 37 to linear peptide (PEPSCAN-ELISA) of a selection of sequences
# System: antibodies in sera from SARS patients (sera 1a, 1b, 2, 6, 37, 62, London, SARS-yellow, SARS-green)
# Type: binding, human

RGNSPARMASGGGET
0.5

So, `NSRNSTPGSSRGNSP` ? Its Binding of serum 37 to linear peptide (PEPSCAN-ELISA) was 0.9

Data point: `LESKVSGKGQQQQGQ` ; Binding of serum 37 to linear peptide (PEPSCAN-ELISA) = 0.6

Please fill in: Binding of serum 37 to linear peptide (PEPSCAN-ELISA) reported for `YNVTQAFGRRGPEQT` = 0.7

The reported value for `LALLLLDRLNQLESK` in terms of Binding of serum 37 to linear peptide (PEPSCAN-ELISA) is 0.5

----------
# System: antibodies in sera from SARS patients (sera 1a, 1b, 2, 6, 37, 62, London, SARS-yellow, SARS-green)
# Type: binding, human
# Set-up: unit not given here
READOUT NAME: Binding of serum 37 to looped/cyclic peptides of protein X2 of SARS-CoV Urbani
Answer with a number only.

VTAFQHQNSKKTTKL
0.3

`KKVSTNLCTHSFRKK` yielded Binding of serum 37 to looped/cyclic peptides of protein X2 of SARS-CoV Urbani of 0.5

----------
# Test system: antibodies in sera from SARS patients (sera 1a, 1b, 2, 6, 37, 62, London, SARS-yellow, SARS-green)
# Assay type: binding, human
# Design: unit not given here
READOUT NAME: Binding of serum 6 to linear peptides of protein M of SARS-CoV Urbani
Answer using only a numeral; do not append any unit.

Known results for sequences:
RVGTDSGFAAYNRYR
0.5
LVIGFLFLAWIMLLQ
0.4
RSMWSFNPETNILLN
0.3
FARTRSMWSFNPETN
0.4

Binding of serum 6 to linear peptides of protein M of SARS-CoV Urbani measured on `ITVATSRTLSYYKLG` = 0.5

For record `LAWIMLLQFAYSNRN` the listed Binding of serum 6 to linear peptides of protein M of SARS-CoV Urbani is 0.2

Just so you know, measured Binding of serum 6 to linear peptides of protein M of SARS-CoV Urbani for `AAVYRINWVTGGIAI` came out at 0.5

Binding of serum 6 to linear peptides of protein M of SARS-CoV Urbani in this record for `EQWNLVIGFLFLAWI` : 0.5

response.value for `LLWPVTLACFVLAAV` (field: Binding of serum 6 to linear peptides of protein M of SARS-CoV Urbani) = 0.4

Lab note: measured Binding of serum 6 to linear peptides of protein M of SARS-CoV Urbani of `QLLEQWNLVIGFLFL` was 0.4

So, `RGTIVTRPLMESELV` ? Its Binding of serum 6 to linear peptides of protein M of SARS-CoV Urbani was 0.4

// `KDLPKEITVATSRTL` : Binding of serum 6 to linear peptides of protein M of SARS-CoV Urbani value = 0.5

Reported Binding of serum 6 to linear peptides of protein M of SARS-CoV Urbani for `LPKEITVATSRTLSY` was 0.4

The sequence identified as `RTLSYYKLGASQRVG` registered its Binding of serum 6 to linear peptides of protein M of SARS-CoV Urbani at 0.8

The sequence listed as `VYRINWVTGGIAIAM` has a reported Binding of serum 6 to linear peptides of protein M of SARS-CoV Urbani of 1.0

Looking up `MLLQFAYSNRNRFLY` , I see its Binding of serum 6 to linear peptides of protein M of SARS-CoV Urbani listed as 0.2

Recorded result, `LNVPLRGTIVTRPLM` , Binding of serum 6 to linear peptides of protein M of SARS-CoV Urbani: 0.5

Recorded result, `LLQFAYSNRNRFLYI` , Binding of serum 6 to linear peptides of protein M of SARS-CoV Urbani: 0.3

----------
# key: entry, value: Binding of serum 62 to linear peptides of protein X1 of SARS-CoV Urbani
# Tested on: antibodies in sera from SARS patients (sera 1a, 1b, 2, 6, 37, 62, London, SARS-yellow, SARS-green)
# Format: binding, human
Respond numerically, and do not add a unit to the figure.

Item: `KRWQLALYKGFQFIC` | Binding of serum 62 to linear peptides of protein X1 of SARS-CoV Urbani: 0.5

Binding of serum 62 to linear peptides of protein X1 of SARS-CoV Urbani reported for this sequence `FLYLYALIYFLQCIN` : 0.6

----------
# Test system: antibodies in sera from SARS patients (sera 1a, 1b, 2, 6, 37, 62, London, SARS-yellow, SARS-green)
# Format: binding, human
READOUT NAME: Binding of serum 1b to linear peptide (PEPSCAN-ELISA)
Number only, no unit.

NFGDQDLIRQGTDYK
0.2

Lookup result for `KVSGKGQQQQGQTVT` ; measured Binding of serum 1b to linear peptide (PEPSCAN-ELISA): 0.1

Value of measured Binding of serum 1b to linear peptide (PEPSCAN-ELISA) for the entry `SKVSGKGQQQQGQTV` : 0.1

Binding of serum 1b to linear peptide (PEPSCAN-ELISA) recorded for this sequence, `SRSRGNSRNSTPGSS` , is 0.6

// Binding of serum 1b to linear peptide (PEPSCAN-ELISA) value for `QAFGRRGPEQTQGNF` : 0.1

The measured Binding of serum 1b to linear peptide (PEPSCAN-ELISA) associated with `KKPRQKRTATKQYNV` reads 0.1

// `AFGRRGPEQTQGNFG` : Binding of serum 1b to linear peptide (PEPSCAN-ELISA) value = 0.1

Sample `LESKVSGKGQQQQGQ` ; Binding of serum 1b to linear peptide (PEPSCAN-ELISA) observed: 0.1

Binding of serum 1b to linear peptide (PEPSCAN-ELISA) reported for this sequence `FGDQDLIRQGTDYKH` : 0.2

Field Binding of serum 1b to linear peptide (PEPSCAN-ELISA) (entry `QQQQGQTVTKKSAAE` ) reads 0.3

----------
# System: antibodies in sera from SARS patients (sera 1a, 1b, 2, 6, 37, 62, London, SARS-yellow, SARS-green)
# Assay type: binding, human
# Parameters: unit not given here
READOUT NAME: Binding of serum 37 to looped/cyclic peptide (PEPSCAN-ELISA)

Recorded Binding of serum 37 to looped/cyclic peptide (PEPSCAN-ELISA), per entry:
CRIIMRCWLCWKCKS
0.6
FMRFFTLGSITAQPV
0.5
TIYSHLLLVAAGMEA
0.5
YKGFQFICNLLLLFV
0.2
SLPFGWLVIGVAFLA
0.3

Moving on to another sequence below.
// recorded Binding of serum 37 to looped/cyclic peptide (PEPSCAN-ELISA) for `PLQASLPFGWLVIGV` : 0.5

----------
Measured Binding of serum London to linear peptides of protein X5 of SARS-CoV Urbani by item
# Tested on: antibodies in sera from SARS patients (sera 1a, 1b, 2, 6, 37, 62, London, SARS-yellow, SARS-green)
# Format: binding, human
Reply with just the number.

Previously resolved entries follow.
LVRYNTRGNTYSTAW
0.6
NTYSTAWLCALGKVL
0.6
ALGKVLPFHRWHTMV
0.7
PFHRWHTMVQTCTPN
0.7
GGALIARCWYLHEGH
0.7
STAWLCALGKVLPFH
0.7

Now look at this entry.
The sequence `GNTYSTAWLCALGKV` showed Binding of serum London to linear peptides of protein X5 of SARS-CoV Urbani equal to 0.7

----------
# Test system: antibodies in sera from SARS patients (sera 1a, 1b, 2, 6, 37, 62, London, SARS-yellow, SARS-green)
# Format: binding, human
# Set-up: unit not given here
Each entry below carries its recorded Binding of serum 1b to looped/cyclic peptides of protein N of SARS-CoV Urbani.
Answer with the value's number alone.

ADMDDFSRQLQNSMS
0.2
ATRRVRGGDGKMKEL
0.1
PDDQIGYYRRATRRV
0.3
AFGRRGPEQTQGNFG
0.1
SGTWLTYHGAIKLDD
0.5

Binding of serum 1b to looped/cyclic peptides of protein N of SARS-CoV Urbani measured on `WLTYHGAIKLDDKDP` = 0.1

GET /value?item= `DDFSRQLQNSMSGAS` &field=Binding of serum 1b to looped/cyclic peptides of protein N of SARS-CoV Urbani returns 0.1

// field: Binding of serum 1b to looped/cyclic peptides of protein N of SARS-CoV Urbani; key: `LALLLLDRLNQLESK` ; value = 0.2
